# credit: paper PMC4869717

molecular target: the molecule itself; test: thioflavin T fluorescence

protein	binding result
EmN variant S54F (domain or fragment, human, UniProt P50402 1-187, looked up) MDNYADLSDTELTTLLRRYNIPHGPVVGSTRRLYEKKIFEYETQRRRLSPPSSFAASSYSFSDLNSTRGDADMYDLPKKEDALLYQSKGYNDDYYEESYFTTRTYGEPESAGPSRAVRQSVTSFPDADAFHHQVHDDDLLSSSEEECKDRERPMYGRDSAYQSITHYRPVSASRSSLDLSYYPTSSS	binds
